Test system: Mycobacterium tuberculosis
assay.overview: Antituberculosis activity against Mycobacterium tuberculosis H37Rv MTCC 300 at 6.25 ug/ml after 4 weeks by Lowenstein-Jensen medium method
Format: functional
run.conditions: H37Rv MTCC 300, 672 h
Listing of entries alongside the reported inhibition at 6.25 µg/mL.
Provide a numeric answer, followed by its unit.

# count of solved cases: 5
>>> df
                                   molecule  result
0  CC1=C(C(=O)Nc2ccc(Br)cn2)C(c2cn(-c3ccccc3)nc2-c2ccc([N+](=O)[O-])cc2)n2ncnc2N1 (stereo unspecified)     96%
1  Cc1ccc(NC(=O)C2=C(C(C)C)Nc3ncnn3C2c2cn(-c3ccccc3)nc2-c2ccc(F)cc2)nc1 (stereo unspecified)     82%
2  CC1=C(C(=O)Nc2ccc(Br)cn2)C(c2cn(-c3ccccc3)nc2-c2ccccc2)n2ncnc2N1 (stereo unspecified)     95%
3  CC(C)C1=C(C(=O)Nc2ccccn2)C(c2cn(-c3ccccc3)nc2-c2ccc([N+](=O)[O-])cc2)n2ncnc2N1 (stereo unspecified)     74%
4  CC1=C(C(=O)Nc2ccccn2)C(c2cn(-c3ccccc3)nc2-c2ccc(C)cc2)n2ncnc2N1 (stereo unspecified)     56%

Field inhibition at 6.25 µg/mL (entry CC(C)C1=C(C(=O)Nc2ccccn2)C(c2cn(-c3ccccc3)nc2-c2ccc(Cl)cc2)n2ncnc2N1 (stereo unspecified) ) reads 81%

inhibition at 6.25 µg/mL recorded for this molecule, Cc1ccc(NC(=O)C2=C(C(C)C)Nc3ncnn3C2c2cn(-c3ccccc3)nc2-c2ccc(Cl)cc2)nc1 (stereo unspecified) , is 76%

Quick note, inhibition at 6.25 µg/mL for Cc1ccc(NC(=O)C2=C(C(C)C)Nc3ncnn3C2c2cn(-c3ccccc3)nc2-c2ccc([N+](=O)[O-])cc2)nc1 (stereo unspecified) landed at 68%

Looking up CC(C)C1=C(C(=O)Nc2ccc(Br)cn2)C(c2cn(-c3ccccc3)nc2-c2ccc([N+](=O)[O-])cc2)n2ncnc2N1 (stereo unspecified) , I found its inhibition at 6.25 µg/mL recorded as 78%
